test-description: self-splicing fitness, log relative to wild type (ln ratio); higher = more splicing; Tetrahymena group I intron in knt gene, E. coli kanamycin selection, DiMSum; sequences stand for … in CUCUCU…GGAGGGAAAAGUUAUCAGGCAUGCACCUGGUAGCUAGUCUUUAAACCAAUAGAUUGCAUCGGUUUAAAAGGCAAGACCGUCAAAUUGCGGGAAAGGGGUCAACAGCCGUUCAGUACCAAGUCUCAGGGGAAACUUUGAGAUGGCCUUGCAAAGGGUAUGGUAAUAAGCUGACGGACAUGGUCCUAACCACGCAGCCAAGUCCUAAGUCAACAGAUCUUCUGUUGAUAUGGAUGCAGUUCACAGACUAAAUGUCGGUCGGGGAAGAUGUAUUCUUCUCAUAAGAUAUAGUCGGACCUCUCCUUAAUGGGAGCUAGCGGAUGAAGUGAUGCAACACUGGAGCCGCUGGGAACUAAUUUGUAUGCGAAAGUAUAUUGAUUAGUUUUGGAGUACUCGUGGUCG;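 further: selection with 25 µg/mL kanamycin versus none on LB agar overnight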
reported-conditions: 30 °C
property: self-splicing fitness (ln)

GGUCAGCAAUAUUACGACCU -3.06
CUUAAGCAAUAUUACGAAUC -2.97
UCAUAGCAAUAUUACGAGGU -2.98

---

test-description: self-splicing fitness, log relative to wild type (ln ratio); higher = more splicing; Tetrahymena group I intron in knt gene, E. coli kanamycin selection, DiMSum; sequences stand for … in CUCUCU…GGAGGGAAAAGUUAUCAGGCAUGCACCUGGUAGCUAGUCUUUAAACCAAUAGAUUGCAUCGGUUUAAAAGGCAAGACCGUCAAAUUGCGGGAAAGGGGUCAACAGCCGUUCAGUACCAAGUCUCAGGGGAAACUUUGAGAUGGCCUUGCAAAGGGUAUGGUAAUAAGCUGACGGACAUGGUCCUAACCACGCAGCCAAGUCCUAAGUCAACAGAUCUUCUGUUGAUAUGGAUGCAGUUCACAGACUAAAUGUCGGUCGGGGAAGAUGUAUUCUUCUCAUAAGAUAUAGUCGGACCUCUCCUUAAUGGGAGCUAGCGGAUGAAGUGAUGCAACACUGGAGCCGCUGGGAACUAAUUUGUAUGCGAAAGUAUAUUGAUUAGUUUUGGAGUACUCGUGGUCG
reported-conditions: 37 °C
property: self-splicing fitness (ln)

UUGAAGCAAUAUUACGCUUC -2.06
CUCUAGCAAUAUUACGAGAC -1.17
CAGAAGCAAUAUUACGGGUA -2.25
UCAGAGCAAUAUUACGUCGG -0.479
CCGAAGCAAUAUUACGCUAG -1.87
CCACAGCAAUAUUACGCAGA -2.89
CGGCAGCAAUAUUACGAGAC -3.43
CAUUAGCAAUAUUACGUCAA -2.96
AUACAGCAAUAUUACGGAGG -1.8
GGCCAGCAAUAUUACGCGCA 0.666
UGUUAGCAAUAUUACGGCUG 0.196
UUGCAGCAAUAUUACGGGCC -2.3
UUAUAGCAAUAUUACGGACC -1.41
UGGCAGCAAUAUUACGGCCA -0.836
AGUUAGCAAUAUUACGGAAG -3.07
AGACAGCAAUAUUACGUUGG -1.99
GGUGAGCAAUAUUACGAGUA -1.69
CAUCAGCAAUAUUACGUAAC -2.01
CGUUAGCAAUAUUACGAUAU -2.22
CGGAAGCAAUAUUACGUGGC -2.54
CGAAAGCAAUAUUACGAAAA -1.32
GCCCAGCAAUAUUACGGCUU -0.757
CGUUAGCAAUAUUACGCUUG -1.26
CUAUAGCAAUAUUACGAGCA -2.36
CCGAAGCAAUAUUACGGCUA -1.64
UGAAAGCAAUAUUACGCGCG -0.153
ACACAGCAAUAUUACGAUUA -0.929
AAAUAGCAAUAUUACGGUCU -0.388
UAUUAGCAAUAUUACGCGUC -2.57
GUAGAGCAAUAUUACGAGCG -0.875
CCGGAGCAAUAUUACGCCUA -2.59
UUGCAGCAAUAUUACGCGAG -1.73
GAUAAGCAAUAUUACGUCAC -1.86
CCCCAGCAAUAUUACGGAUA -2.65
CCACAGCAAUAUUACGUGAG -0.739
AUGAAGCAAUAUUACGAAGG -0.569
UAUAAGCAAUAUUACGGAGA -2.33
CAAAAGCAAUAUUACGGGGC -3.02
